- ASSAY: AUClast in BALB/c mouse plasma at 100 mg/kg administered via oral gavage after 0.25 to 24 hrs by LC-MS analysis
- Format: ADME, organism-based
- Set-up: dose 100 mg/kg, time 0.25-24 hr, route oral
Kindly state AUC(0-t) for each of the entries shown.
Field format: number, assumed ng·h/mL, no unit text.

Recorded AUC(0-t) of CC1(C)CCC(NC(=O)c2cc3c(Cl)cc(Cl)cc3[nH]2)CC1 , please.
5620

Recorded AUC(0-t) of C[C@@H]1[C@H]2C[C@@H](C[C@H]1NC(=O)c1cc3c(F)cc(F)cc3[nH]1)C2(C)C , please.
18900

Where do the numbers come from? From ChEMBL document CHEMBL4477209.
